experiment: Stability in rhesus monkey liver microsomes assessed as parent compound remaining after 45 mins; format: ADME, Macaca mulatta, microsome; conditions: read-out: Stability
readout kind: remaining at 0.75 h (%)
Write the answer as a number in %, unit excluded.

remaining at 0.75 h reading for O=C(c1ccc(C[C@@H]2CC[C@H]([C@H](O)c3ccccc3)N2)cc1)N1CCN(Cc2nnn(CC(F)(F)F)n2)CC1 : 19

----------
target: UniProtKB P13945; test: Agonist activity at human beta3 adrenergic receptor relative to R-(-)-isoproterenol
Sequence (P13945 whole entry, looked up): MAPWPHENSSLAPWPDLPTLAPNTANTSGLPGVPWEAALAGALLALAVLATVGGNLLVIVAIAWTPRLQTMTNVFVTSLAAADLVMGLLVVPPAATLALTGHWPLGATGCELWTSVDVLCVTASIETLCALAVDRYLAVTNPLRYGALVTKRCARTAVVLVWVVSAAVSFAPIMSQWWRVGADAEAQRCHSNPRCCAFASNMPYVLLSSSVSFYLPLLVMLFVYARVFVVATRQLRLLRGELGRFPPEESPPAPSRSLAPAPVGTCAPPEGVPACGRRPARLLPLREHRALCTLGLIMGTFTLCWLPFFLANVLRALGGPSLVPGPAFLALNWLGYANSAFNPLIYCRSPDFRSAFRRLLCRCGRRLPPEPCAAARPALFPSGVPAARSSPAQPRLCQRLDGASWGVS
Please respond with reported Emax for every item in the list.
Write the answer as a number in %, unit excluded.

Cc1noc(-c2cccc(CN3CCN(C(=O)c4ccc(C[C@@H]5CC[C@H]([C@H](O)c6ccccc6)N5)cc4)CC3)n2)n1 on UniProtKB P13945 gives Emax = 99

O=C(c1ccc(C[C@@H]2CC[C@H]([C@H](O)c3ccccc3)N2)cc1)N1CCN(Cc2nnn(CC3CC3)n2)CC1 on UniProtKB P13945 gives Emax = 99

O=C(c1ccc(C[C@@H]2CC[C@H]([C@H](O)c3ccccc3)N2)cc1)N1CCN(Cc2nnn(CC(F)(F)F)n2)CC1 on UniProtKB P13945 gives Emax = 98

O=C(c1ccc(C[C@@H]2CC[C@H]([C@H](O)c3ccccc3)N2)cc1)N1CCN(Cc2ncn(CC(F)(F)F)n2)CC1 on UniProtKB P13945 gives Emax = 113

O=C(c1ccc(C[C@@H]2CC[C@H]([C@H](O)c3ccccc3)N2)cc1)N1CCN(Cc2ncn(CC(F)F)n2)CC1 on UniProtKB P13945 gives Emax = 108

Cc1nnc(-c2cccc(CN3CCN(C(=O)c4ccc(C[C@@H]5CC[C@H]([C@H](O)c6ccccc6)N5)cc4)CC3)n2)o1 on UniProtKB P13945 gives Emax = 109

O=C(c1ccc(C[C@@H]2CC[C@H]([C@H](O)c3ccccc3)N2)cc1)N1CCN(Cc2nnn(CC(F)F)n2)CC1 on UniProtKB P13945 gives Emax = 101

CCn1nnc(CN2CCN(C(=O)c3ccc(C[C@@H]4CC[C@H]([C@H](O)c5ccccc5)N4)cc3)CC2)n1 on UniProtKB P13945 gives Emax = 91

----------
Please respond with reported fraction unbound for every item in the list.
assay: Unbound fraction in rat at 1 mg/kg, iv or 2 mg/kg, po; type: ADME, organism-based; conditions: in vivo
The answer should be a number; do not append a unit.

fraction unbound reading for O=C(c1ccc(C[C@@H]2CC[C@H]([C@H](O)c3ccccc3)N2)cc1)N1CCN(Cc2ccccn2)CC1 : 0.48

fraction unbound reading for O=C(c1ccc(C[C@@H]2CC[C@H]([C@H](O)c3ccccc3)N2)cc1)N1CCN(Cc2nnn(CC(F)(F)F)n2)CC1 : 0.65

fraction unbound reading for O=C(c1ccc(C[C@@H]2CC[C@H]([C@H](O)c3ccccc3)N2)cc1)N1CCN(Cc2nnn(CC(F)F)n2)CC1 : 0.56

----------
Please respond with reported half-life for every item in the list.
test: Half life in dog at 0.5 mg/kg, iv or 2 mg/kg, po; format: ADME, organism-based, Canis lupus familiaris; conditions: in vivo
Write the answer as a number in h, unit excluded.

half-life reading for O=C(c1ccc(C[C@@H]2CC[C@H]([C@H](O)c3ccccc3)N2)cc1)N1CCN(Cc2ccccn2)CC1 : 12

half-life reading for O=C(c1ccc(C[C@@H]2CC[C@H]([C@H](O)c3ccccc3)N2)cc1)N1CCN(Cc2nnn(CC(F)(F)F)n2)CC1 : 6.9

half-life reading for O=C(c1ccc(C[C@@H]2CC[C@H]([C@H](O)c3ccccc3)N2)cc1)N1CCN(Cc2nnn(CC(F)F)n2)CC1 : 8.5

----------
Please respond with reported pIC50 for every item in the list.
molecular target: Sodium channel protein type 5 subunit alpha (Homo sapiens, UniProt Q14524); assay: Inhibition of human Nav1.5 by electrophysiology method
Sequence (Q14524 whole entry): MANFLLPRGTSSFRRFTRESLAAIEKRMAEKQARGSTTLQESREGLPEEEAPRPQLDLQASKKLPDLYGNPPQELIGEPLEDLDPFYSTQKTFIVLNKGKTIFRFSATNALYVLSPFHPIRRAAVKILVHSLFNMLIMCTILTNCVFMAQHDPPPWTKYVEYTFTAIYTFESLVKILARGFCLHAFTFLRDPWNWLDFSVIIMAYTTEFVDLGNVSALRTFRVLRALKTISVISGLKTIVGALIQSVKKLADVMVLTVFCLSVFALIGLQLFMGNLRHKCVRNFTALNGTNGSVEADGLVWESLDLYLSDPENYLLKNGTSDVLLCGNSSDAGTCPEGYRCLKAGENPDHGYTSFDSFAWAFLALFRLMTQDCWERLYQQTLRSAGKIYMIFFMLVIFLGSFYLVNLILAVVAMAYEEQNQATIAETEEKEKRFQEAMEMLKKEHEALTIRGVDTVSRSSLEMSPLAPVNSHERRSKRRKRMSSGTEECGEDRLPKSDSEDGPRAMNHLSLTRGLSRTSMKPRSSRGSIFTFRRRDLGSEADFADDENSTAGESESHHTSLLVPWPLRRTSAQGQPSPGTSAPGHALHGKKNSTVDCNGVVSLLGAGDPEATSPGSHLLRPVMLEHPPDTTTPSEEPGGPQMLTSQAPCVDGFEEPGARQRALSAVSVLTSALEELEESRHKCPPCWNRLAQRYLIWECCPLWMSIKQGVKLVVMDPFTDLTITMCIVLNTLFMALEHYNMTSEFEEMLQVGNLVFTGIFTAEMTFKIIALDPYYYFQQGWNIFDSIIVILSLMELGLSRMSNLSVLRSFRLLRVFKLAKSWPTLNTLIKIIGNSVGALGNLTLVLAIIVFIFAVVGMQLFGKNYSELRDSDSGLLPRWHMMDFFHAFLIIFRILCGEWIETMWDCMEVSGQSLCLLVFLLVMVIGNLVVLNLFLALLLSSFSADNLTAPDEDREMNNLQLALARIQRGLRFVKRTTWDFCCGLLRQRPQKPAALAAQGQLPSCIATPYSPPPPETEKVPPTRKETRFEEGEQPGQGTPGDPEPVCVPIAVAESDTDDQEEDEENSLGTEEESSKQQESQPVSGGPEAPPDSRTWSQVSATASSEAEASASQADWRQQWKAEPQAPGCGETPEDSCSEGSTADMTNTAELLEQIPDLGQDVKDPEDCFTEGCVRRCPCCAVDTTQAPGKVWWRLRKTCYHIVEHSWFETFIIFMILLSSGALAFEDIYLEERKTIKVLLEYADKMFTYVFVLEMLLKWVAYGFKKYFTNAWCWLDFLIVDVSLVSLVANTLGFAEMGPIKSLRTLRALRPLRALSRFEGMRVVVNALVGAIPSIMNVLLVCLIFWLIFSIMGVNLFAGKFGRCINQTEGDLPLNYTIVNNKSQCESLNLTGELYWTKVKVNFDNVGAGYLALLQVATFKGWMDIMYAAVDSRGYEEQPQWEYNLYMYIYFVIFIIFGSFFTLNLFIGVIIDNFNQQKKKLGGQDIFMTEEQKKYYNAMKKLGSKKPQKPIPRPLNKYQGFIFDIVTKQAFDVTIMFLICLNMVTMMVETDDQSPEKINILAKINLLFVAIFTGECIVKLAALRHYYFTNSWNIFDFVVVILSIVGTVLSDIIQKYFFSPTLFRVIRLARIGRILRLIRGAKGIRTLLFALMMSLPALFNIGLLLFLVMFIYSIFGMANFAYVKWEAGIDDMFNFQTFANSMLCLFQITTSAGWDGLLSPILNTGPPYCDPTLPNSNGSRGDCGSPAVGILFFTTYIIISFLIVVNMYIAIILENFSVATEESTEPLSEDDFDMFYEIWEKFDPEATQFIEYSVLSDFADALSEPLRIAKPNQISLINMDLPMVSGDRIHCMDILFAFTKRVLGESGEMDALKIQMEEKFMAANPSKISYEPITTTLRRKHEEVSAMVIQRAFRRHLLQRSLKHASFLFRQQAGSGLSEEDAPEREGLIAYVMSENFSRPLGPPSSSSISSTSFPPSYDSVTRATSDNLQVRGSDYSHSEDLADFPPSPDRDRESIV
pIC50: −log10 of the molar value.

pIC50 reading for O=C(c1ccc(C[C@@H]2CC[C@H]([C@H](O)c3ccccc3)N2)cc1)N1CCN(Cc2nnn(CC3CC3)n2)CC1 : < 4.52

pIC50 reading for O=C(c1ccc(C[C@@H]2CC[C@H]([C@H](O)c3ccccc3)N2)cc1)N1CCN(Cc2ncn(CC(F)(F)F)n2)CC1 : < 4.52

pIC50 reading for O=C(c1ccc(C[C@@H]2CC[C@H]([C@H](O)c3ccccc3)N2)cc1)N1CCN(Cc2ncn(CC(F)F)n2)CC1 : < 4.52

pIC50 reading for CCn1nnc(CN2CCN(C(=O)c3ccc(C[C@@H]4CC[C@H]([C@H](O)c5ccccc5)N4)cc3)CC2)n1 : < 4.52

pIC50 reading for Cc1noc(-c2cccc(CN3CCN(C(=O)c4ccc(C[C@@H]5CC[C@H]([C@H](O)c6ccccc6)N5)cc4)CC3)n2)n1 : < 4.52

pIC50 reading for Cc1nnc(-c2cccc(CN3CCN(C(=O)c4ccc(C[C@@H]5CC[C@H]([C@H](O)c6ccccc6)N5)cc4)CC3)n2)o1 : < 4.52

pIC50 reading for O=C(c1ccc(C[C@@H]2CC[C@H]([C@H](O)c3ccccc3)N2)cc1)N1CCN(Cc2ccccn2)CC1 : < 4.52

pIC50 reading for O=C(c1ccc(C[C@@H]2CC[C@H]([C@H](O)c3ccccc3)N2)cc1)N1CCN(Cc2nnn(CC(F)F)n2)CC1 : < 4.52

pIC50 reading for O=C(c1ccc(C[C@@H]2CC[C@H]([C@H](O)c3ccccc3)N2)cc1)N1CCN(Cc2nnn(CC(F)(F)F)n2)CC1 : < 4.52

----------
assay: Stability in rhesus monkey hepatocytes assessed as parent compound remaining up to 60 mins; assay type: ADME, cell-based, Macaca mulatta, Hepatocyte; conditions: read-out: Stability
readout kind: remaining at 1 h (%)
Write the answer as a number in %, unit excluded.

remaining at 1 h reading for O=C(c1ccc(C[C@@H]2CC[C@H]([C@H](O)c3ccccc3)N2)cc1)N1CCN(Cc2nnn(CC(F)(F)F)n2)CC1 : 50

----------
test: Stability in dog liver microsomes assessed as parent compound remaining after 45 mins; format: ADME, Canis lupus familiaris, microsome; details: read-out: Stability
readout kind: remaining at 0.75 h (%)
Write the answer as a number in %, unit excluded.

remaining at 0.75 h reading for O=C(c1ccc(C[C@@H]2CC[C@H]([C@H](O)c3ccccc3)N2)cc1)N1CCN(Cc2nnn(CC(F)(F)F)n2)CC1 : 85

----------
experiment: Stability in human liver microsomes assessed as parent compound remaining after 45 mins; format: ADME, microsome; conditions: read-out: Stability
readout kind: remaining at 0.75 h (%)
Write the answer as a number in %, unit excluded.

remaining at 0.75 h reading for O=C(c1ccc(C[C@@H]2CC[C@H]([C@H](O)c3ccccc3)N2)cc1)N1CCN(Cc2nnn(CC(F)(F)F)n2)CC1 : 42

----------
assay: Volume of distribution in rhesus monkey at 0.5 mg/kg, iv or 2 mg/kg, po; format: ADME, organism-based, Macaca mulatta; settings: in vivo
Please respond with reported Vd for every item in the list.
Write the answer as a number in L/kg, unit excluded.

Vd reading for CCc1nnc([C@H]2[C@@H]3CN(C(=O)c4ccc(C[C@@H]5CC[C@H]([C@H](O)c6ccccc6)N5)cc4)C[C@@H]32)o1 : 5.2

Vd reading for O=C(c1ccc(C[C@@H]2CC[C@H]([C@H](O)c3ccccc3)N2)cc1)N1CCN(Cc2ccccn2)CC1 : 11

Vd reading for O=C(c1ccc(C[C@@H]2CC[C@H]([C@H](O)c3ccccc3)N2)cc1)N1CCN(Cc2nnn(CC(F)(F)F)n2)CC1 : 5.8

----------
experiment: Oral bioavailability in rhesus monkey at 2 mg/kg; type: ADME, organism-based, Macaca mulatta; details: in vivo
readout kind: bioavailability (%)
Write the answer as a number in %, unit excluded.

bioavailability reading for O=C(c1ccc(C[C@@H]2CC[C@H]([C@H](O)c3ccccc3)N2)cc1)N1CCN(Cc2nnn(CC(F)(F)F)n2)CC1 : 5.4

bioavailability reading for O=C(c1ccc(C[C@@H]2CC[C@H]([C@H](O)c3ccccc3)N2)cc1)N1CCN(Cc2ccccn2)CC1 : 16

bioavailability reading for CCc1nnc([C@H]2[C@@H]3CN(C(=O)c4ccc(C[C@@H]5CC[C@H]([C@H](O)c6ccccc6)N5)cc4)C[C@@H]32)o1 : 5

----------
target: Beta-3 adrenergic receptor (Homo sapiens, UniProt P13945); test: Agonist activity at human beta3 adrenergic receptor
Sequence (P13945 whole entry): as the sequence (P13945 whole entry, looked up) above
Please respond with reported pEC50 for every item in the list.
pEC50 here is simply -log10 of the concentration when that concentration is written in mol/L.

pEC50 reading for O=C(c1ccc(C[C@@H]2CC[C@H]([C@H](O)c3ccccc3)N2)cc1)N1CCN(Cc2nnn(CC(F)F)n2)CC1 : 8.82

pEC50 reading for Cc1nnc(-c2cccc(CN3CCN(C(=O)c4ccc(C[C@@H]5CC[C@H]([C@H](O)c6ccccc6)N5)cc4)CC3)n2)o1 : 8.60

pEC50 reading for O=C(c1ccc(C[C@@H]2CC[C@H]([C@H](O)c3ccccc3)N2)cc1)N1CCN(Cc2ncn(CC(F)(F)F)n2)CC1 : 8.80

pEC50 reading for CCn1nnc(CN2CCN(C(=O)c3ccc(C[C@@H]4CC[C@H]([C@H](O)c5ccccc5)N4)cc3)CC2)n1 : 8.29

pEC50 reading for O=C(c1ccc(C[C@@H]2CC[C@H]([C@H](O)c3ccccc3)N2)cc1)N1CCN(Cc2nnn(CC3CC3)n2)CC1 : 8.28

pEC50 reading for O=C(c1ccc(C[C@@H]2CC[C@H]([C@H](O)c3ccccc3)N2)cc1)N1CCN(Cc2nnn(CC(F)(F)F)n2)CC1 : 8.72

pEC50 reading for Cc1noc(-c2cccc(CN3CCN(C(=O)c4ccc(C[C@@H]5CC[C@H]([C@H](O)c6ccccc6)N5)cc4)CC3)n2)n1 : 9.49

pEC50 reading for O=C(c1ccc(C[C@@H]2CC[C@H]([C@H](O)c3ccccc3)N2)cc1)N1CCN(Cc2ncn(CC(F)F)n2)CC1 : 8.54
